# Target Under Test: BRSK2 (human) (UniProt Q8IWQ3)
# Sequence (Q8IWQ3 whole entry, looked up): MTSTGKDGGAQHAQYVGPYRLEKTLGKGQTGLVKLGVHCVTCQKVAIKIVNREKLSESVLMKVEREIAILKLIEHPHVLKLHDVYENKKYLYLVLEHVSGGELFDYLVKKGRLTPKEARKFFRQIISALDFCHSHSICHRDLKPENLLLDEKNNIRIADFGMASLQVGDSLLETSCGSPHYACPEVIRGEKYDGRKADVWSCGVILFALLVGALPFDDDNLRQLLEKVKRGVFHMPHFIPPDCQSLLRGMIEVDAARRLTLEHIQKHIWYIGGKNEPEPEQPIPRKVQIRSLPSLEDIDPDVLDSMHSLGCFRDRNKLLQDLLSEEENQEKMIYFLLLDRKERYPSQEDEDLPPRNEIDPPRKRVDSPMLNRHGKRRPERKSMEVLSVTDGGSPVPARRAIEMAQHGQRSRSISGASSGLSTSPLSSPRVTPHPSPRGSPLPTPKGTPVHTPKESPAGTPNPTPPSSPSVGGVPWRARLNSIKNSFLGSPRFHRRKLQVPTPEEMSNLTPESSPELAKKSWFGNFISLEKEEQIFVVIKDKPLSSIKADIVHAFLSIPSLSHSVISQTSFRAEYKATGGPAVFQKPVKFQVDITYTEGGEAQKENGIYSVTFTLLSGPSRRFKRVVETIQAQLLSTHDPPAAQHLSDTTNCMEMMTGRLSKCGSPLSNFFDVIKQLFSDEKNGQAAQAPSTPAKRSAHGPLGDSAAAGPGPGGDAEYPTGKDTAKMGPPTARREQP
# Assay Protocol: KINOMEscan competition binding
# Condition Label: compound 10.0 µM
Property Measured: kinase still bound, per cent of control (%)
Number in %, nothing else.

Here's what some known entries look like.
INSERT INTO measurements (given_smiles, property_measured, reported_value) VALUES
  ('C=CC(=O)Nc1cc(-n2c(=O)ccc3cnc4ccc(-c5cn[nH]c5)cc4c32)ccc1C', 'kinase still bound, per cent of control', 67),
  ('C[C@@H](Oc1cc(-c2cnn(C3CCNCC3)c2)cnc1N)c1c(Cl)ccc(F)c1Cl', 'kinase still bound, per cent of control', 65),
  ('Cc1n[nH]c2ccc(-c3cncc(OC[C@@H](N)Cc4c[nH]c5ccccc45)c3)cc12', 'kinase still bound, per cent of control', 100),
  ('CN(C)C/C=C/C(=O)Nc1ccc(C(=O)Nc2cccc(Nc3nccc(-c4cccnc4)n3)c2)cc1', 'kinase still bound, per cent of control', 88),
  ('CNC(=O)c1ccc(Nc2cc(Nc3ccccc3S(=O)(=O)C(C)C)c3cc[nH]c3n2)nc1', 'kinase still bound, per cent of control', 100);

## Task Item under review: O=C(Nc1cccc(Nc2ncc(Br)c(NCCc3cnc[nH]3)n2)c1)N1CCCC1 . Reported kinase still bound, per cent of control?
## Result 5.8

## Task Item under review: CCN(CC)CCCCNc1ncc2cc(-c3cc(OC)cc(OC)c3)c(NC(=O)NC(C)(C)C)nc2n1 . Reported kinase still bound, per cent of control?
## Result 100

## Task Item under review: N#CCNC(=O)c1ccc(-c2ccnc(Nc3ccc(N4CCOCC4)cc3)n2)cc1 . Reported kinase still bound, per cent of control?
## Result 100

## Task Item under review: NC(=O)Nc1cc(-c2cccc(F)c2)sc1C(=O)N[C@@H]1CCCNC1 . Reported kinase still bound, per cent of control?
## Result 2.8

----------
Entries and their measured kinase still bound, per cent of control follow.
# Target Under Test: MAP3K13 (human)
# Assay Protocol: KINOMEscan competition binding
# Condition Label: compound 10.0 µM
Number in %, nothing else.

Here's what some known entries look like.
INSERT INTO results (given_smiles, unit_descriptor, reported_value) VALUES
  ('O=C1NC(=O)/C(=C/c2ccc3nccc(-c4ccncc4)c3c2)S1', '%', 82),
  ('C[C@@H](Oc1cc(-c2cnn(C3CCNCC3)c2)cnc1N)c1c(Cl)ccc(F)c1Cl', '%', 10),
  ('NC(=O)Nc1cc(-c2cccc(F)c2)sc1C(=O)N[C@@H]1CCCNC1', '%', 7),
  ('CS(=O)(=O)N1CCN(Cc2cc3nc(-c4cccc5[nH]ncc45)nc(N4CCOCC4)c3s2)CC1', '%', 100),
  ('COc1ccc(N(C(=O)Oc2c(C)cccc2C)c2ccnc(Nc3ccc(N4CCN(C)CC4)cc3)n2)c(OC)c1', '%', 70),
  ('O=C(Nc1cccc(Nc2ncc(Br)c(NCCc3cnc[nH]3)n2)c1)N1CCCC1', '%', 9.9),
  ('CCN1CCN(C(=O)Cc2ccc(Nc3ncc(F)c(Nc4ccc(C(=O)Nc5ccccc5Cl)cc4)n3)cc2)CC1', '%', 44),
  ('COCC(=O)NC/C=C/c1ccc2ncnc(Nc3ccc(Oc4ccc(C)nc4)c(C)c3)c2c1', '%', 80);

## Task Item under review: COc1cc(N2CCN(C)CC2)ccc1Nc1ncc2c(n1)N(C)c1ccccc1C(=O)N2C . Reported kinase still bound, per cent of control?
## Result 100

----------
# Target Under Test: PRKD2 (human)
# Assay Protocol: KINOMEscan competition binding
# Condition Label: compound 10.0 µM
Property Measured: kinase still bound, per cent of control (%)
Number in %, nothing else.

Here's what some known entries look like.
INSERT INTO results (given_smiles, unit_descriptor, reported_value) VALUES
  ('COCC(=O)NC/C=C/c1ccc2ncnc(Nc3ccc(Oc4ccc(C)nc4)c(C)c3)c2c1', '%', 97),
  ('COc1cc(C(=O)N2CCC(N3CCN(C)CC3)CC2)ccc1Nc1ncc2c(n1)N(C)c1ccccc1C(=O)N2C', '%', 59),
  ('N#CCNC(=O)c1ccc(-c2ccnc(Nc3ccc(N4CCOCC4)cc3)n2)cc1', '%', 43),
  ('CCN(CC)CCCCNc1ncc2c(n1)N(C)C(=O)N(c1c(Cl)c(OC)cc(OC)c1Cl)C2', '%', 100);

Read the next record carefully.
## Task Item under review: O=C1NC(=O)/C(=C/c2ccc3nccc(-c4ccncc4)c3c2)S1 . Reported kinase still bound, per cent of control?
## Result 90

----------
# Target Under Test: PI4KB (human) (UniProt Q9UBF8)
# Sequence (Q9UBF8 whole entry, looked up): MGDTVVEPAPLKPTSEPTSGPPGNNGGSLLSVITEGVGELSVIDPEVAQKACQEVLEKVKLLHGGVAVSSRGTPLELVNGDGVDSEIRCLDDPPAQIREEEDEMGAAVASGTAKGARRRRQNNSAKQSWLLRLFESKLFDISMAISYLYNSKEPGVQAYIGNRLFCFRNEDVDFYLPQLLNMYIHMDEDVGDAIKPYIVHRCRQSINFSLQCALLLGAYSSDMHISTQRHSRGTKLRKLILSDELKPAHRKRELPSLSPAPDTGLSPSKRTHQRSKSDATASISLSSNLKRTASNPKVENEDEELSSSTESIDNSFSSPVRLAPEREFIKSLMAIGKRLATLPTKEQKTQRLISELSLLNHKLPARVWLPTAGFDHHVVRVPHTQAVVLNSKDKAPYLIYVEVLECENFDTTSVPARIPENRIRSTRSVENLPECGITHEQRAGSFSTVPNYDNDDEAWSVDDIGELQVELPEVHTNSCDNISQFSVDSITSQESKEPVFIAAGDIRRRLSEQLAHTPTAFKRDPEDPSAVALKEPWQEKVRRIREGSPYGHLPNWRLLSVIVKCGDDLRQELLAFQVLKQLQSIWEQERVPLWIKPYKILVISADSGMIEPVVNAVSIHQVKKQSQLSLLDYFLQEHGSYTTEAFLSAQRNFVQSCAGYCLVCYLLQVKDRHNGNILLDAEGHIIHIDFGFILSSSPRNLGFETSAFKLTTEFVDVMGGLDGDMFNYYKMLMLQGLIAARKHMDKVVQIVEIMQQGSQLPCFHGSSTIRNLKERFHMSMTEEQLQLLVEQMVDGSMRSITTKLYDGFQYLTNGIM
# Assay Protocol: KINOMEscan competition binding
# Condition Label: compound 10.0 µM
Property Measured: kinase still bound, per cent of control (%)
Number in %, nothing else.

Here's what some known entries look like.
INSERT INTO assay_data (given_smiles, target_under_test, property_measured, unit_descriptor, reported_value) VALUES
  ('COc1cc2ncn(-c3cc(OCc4ccccc4C(F)(F)F)c(C(N)=O)s3)c2cc1OC', 'PI4KB (human) (UniProt Q9UBF8)', 'kinase still bound, per cent of control', '%', 100),
  ('NC(=O)Nc1cc(-c2cccc(F)c2)sc1C(=O)N[C@@H]1CCCNC1', 'PI4KB (human) (UniProt Q9UBF8)', 'kinase still bound, per cent of control', '%', 100);

Read the next record carefully.
## Task Recall the recorded kinase still bound, per cent of control for O=C(Nc1cccc(Nc2ncc(Br)c(NCCc3cnc[nH]3)n2)c1)N1CCCC1 with PI4KB (human) (UniProt Q9UBF8) and state it.
## Result 35

----------
# Target Under Test: PI4KB (human)
# Assay Protocol: KINOMEscan competition binding
# Condition Label: compound 10.0 µM
Property Measured: kinase still bound, per cent of control (%)
Number in %, nothing else.

Here's what some known entries look like.
INSERT INTO assay_data (given_smiles, target_under_test, reported_value) VALUES
  ('O=C1NC(=O)/C(=C/c2ccc3nccc(-c4ccncc4)c3c2)S1', 'PI4KB (human)', 0.4),
  ('O=c1cc(N2CCOCC2)oc2c(-c3cccc4c3sc3ccccc34)cccc12', 'PI4KB (human)', 100),
  ('C[C@@H](Oc1cc(-c2cnn(C3CCNCC3)c2)cnc1N)c1c(Cl)ccc(F)c1Cl', 'PI4KB (human)', 100),
  ('CS(=O)(=O)N1CCN(Cc2cc3nc(-c4cccc5[nH]ncc45)nc(N4CCOCC4)c3s2)CC1', 'PI4KB (human)', 100);

## Task Item under review: COc1cc2ncnc(-n3nc(-c4ccccn4)nc3N)c2cc1OC . Reported kinase still bound, per cent of control?
## Result 9.8

----------
Entries and their measured kinase still bound, per cent of control follow.
# Target Under Test: NUAK1 (human)
# Assay Protocol: KINOMEscan competition binding
# Condition Label: compound 10.0 µM
Number in %, nothing else.

Here's what some known entries look like.
INSERT INTO results (given_smiles, property_measured, reported_value) VALUES
  ('COc1cc2ncnc(-n3nc(-c4ccccn4)nc3N)c2cc1OC', 'kinase still bound, per cent of control', 100),
  ('N#CCNC(=O)c1ccc(-c2ccnc(Nc3ccc(N4CCOCC4)cc3)n2)cc1', 'kinase still bound, per cent of control', 45),
  ('CCN(CC)CCCCNc1ncc2cc(-c3cc(OC)cc(OC)c3)c(NC(=O)NC(C)(C)C)nc2n1', 'kinase still bound, per cent of control', 100),
  ('C=CC(=O)Nc1cc(-n2c(=O)ccc3cnc4ccc(-c5cn[nH]c5)cc4c32)ccc1C', 'kinase still bound, per cent of control', 11),
  ('COc1cc(N2CCN(C)CC2)ccc1Nc1ncc2c(n1)N(C)c1ccccc1C(=O)N2C', 'kinase still bound, per cent of control', 7.6),
  ('CS(=O)(=O)N1CCN(Cc2cc3nc(-c4cccc5[nH]ncc45)nc(N4CCOCC4)c3s2)CC1', 'kinase still bound, per cent of control', 100),
  ('COCC(=O)NC/C=C/c1ccc2ncnc(Nc3ccc(Oc4ccc(C)nc4)c(C)c3)c2c1', 'kinase still bound, per cent of control', 100),
  ('O=c1cc(N2CCOCC2)oc2c(-c3cccc4c3sc3ccccc34)cccc12', 'kinase still bound, per cent of control', 100);

## Task Item under review: Cc1n[nH]c2ccc(-c3cncc(OC[C@@H](N)Cc4c[nH]c5ccccc45)c3)cc12 . Reported kinase still bound, per cent of control?
## Result 100

## Task Item under review: CCN1CCN(C(=O)Cc2ccc(Nc3ncc(F)c(Nc4ccc(C(=O)Nc5ccccc5Cl)cc4)n3)cc2)CC1 . Reported kinase still bound, per cent of control?
## Result 18

## Task Item under review: CNC(=O)c1cc(Oc2ccc(NC(=O)Nc3ccc(Cl)c(C(F)(F)F)c3)cc2)ccn1 . Reported kinase still bound, per cent of control?
## Result 84

## Task Item under review: CCN(CC)CCCCNc1ncc2c(n1)N(C)C(=O)N(c1c(Cl)c(OC)cc(OC)c1Cl)C2 . Reported kinase still bound, per cent of control?
## Result 100

## Task Item under review: O=C(Nc1cccc(Nc2ncc(Br)c(NCCc3cnc[nH]3)n2)c1)N1CCCC1 . Reported kinase still bound, per cent of control?
## Result 0
